target: UniProtKB P0DTD1
Each item that follows carries a reported pIC50.
Units for pIC50: none; it is -log10 of a concentration expressed in mol/L.

// below: answered compounds
Req: Form: Entry = O=C(/C=C/c1cccs1)NCc1nc(-c2ccc(C(F)(F)F)cc2)no1 | System = UniProtKB P0DTD1 | pIC50 = ____
Resp: 4.26

Req: Fill in the recorded pIC50 for this compound, with UniProtKB P0DTD1 as test system: CC1=C(c2ccccc2)C1C(=O)NCc1nc(-c2ccccc2C(F)(F)F)no1 (stereo not given)
Resp: 4.17

Req: Request: pIC50, test system UniProtKB P0DTD1, entry C/C=C/C(=O)NCc1nc(-c2ccc(C(F)(F)F)cc2)no1
Resp: 3.60

Req: Recall the recorded pIC50 for CC1=C(c2ccccc2)C1C(=O)NC(CC1CCCCC1)c1nc(-c2ccc(C(F)(F)F)cc2)no1 (stereo not given) with UniProtKB P0DTD1 and state it.
Resp: 4.71

Req: Hi! What's the reported pIC50 for CC1=C(c2ccccc2)C1C(=O)NC(Cc1ccccc1)c1nc(-c2ccc(C(F)(F)F)cc2)no1 (stereo not given) on UniProtKB P0DTD1?
Resp: 5.28

Req: Query the reported pIC50 for UniProtKB P0DTD1; item: CC1=C(c2ccccc2)C1C(=O)NC(Cc1ccc2ccccc2c1)c1nc(-c2ccc(C(F)(F)F)cc2)no1 (stereo not given)
Resp: 5.19

Proceed to the following item.
Req: So what pIC50 did O=C(/C=C/c1ccccn1)NCc1nc(-c2ccc(C(F)(F)F)cc2)no1 get with UniProtKB P0DTD1?
Resp: 3.99

* * *

target: Replicase polyprotein 1ab (Severe acute respiratory syndrome coronavirus 2, UniProt P0DTD1)
outcome.measure: pIC50
Note on pIC50: it is the negative log10 of concentration, concentration in mol/L.

Req: May I ask what pIC50 has been recorded for CC1=C(c2ccccc2)C1C(=O)NCc1nc(-c2cccc(C(F)(F)F)c2)no1 (stereo not drawn) ?
Resp: 4.85

---
Req: Look up pIC50: O=C(C#Cc1ccccc1)NCc1nc(-c2ccc(C(F)(F)F)cc2)no1
Resp: 4.33

Req: Any idea what pIC50 was measured for CC1=C(c2ccccc2)C1C(=O)NC(Cc1ccc(F)cc1)c1nc(-c2ccc(C(F)(F)F)cc2)no1 (stereo not drawn) ?
Resp: 4.78

* * *

target: Replicase polyprotein 1ab (Severe acute respiratory syndrome coronavirus 2, UniProt P0DTD1)
outcome.measure: pIC50
Keep it numeric: pIC50 is minus log10 of the concentration in mol/L.

Consider the worked cases shown below.
Req: Item O=C(CCc1ccccc1)NCc1nc(-c2ccc(C(F)(F)F)cc2)no1 has what recorded pIC50?
Resp: 4.04

Req: So what does the record say about pIC50 for O=C(/C=C/c1ccccc1)NCc1nc(-c2ccc(C(F)(F)F)cc2)no1 ?
Resp: 4.33

Req: Returns the measured pIC50 for the input molecule. Input: CC1=C(c2ccccc2)C1C(=O)NC(Cc1cc2ccccc2[nH]1)c1nc(-c2ccc(C(F)(F)F)cc2)no1 (stereo not given)
Resp: 4.83

Req: Entry O=C(/C=C/c1ccco1)NCc1nc(-c2ccc(C(F)(F)F)cc2)no1 has what pIC50?
Resp: 4.22

Req: Tell me the measured pIC50 of CC1=C(c2ccccc2)C1C(=O)NC(CC1CC1)c1nc(-c2ccc(C(F)(F)F)cc2)no1 (stereo not given) , please.
Resp: 4.11

Req: pIC50 for O=C(NCc1nc(-c2ccc(C(F)(F)F)cc2)no1)c1ccccc1 ?
Resp: 4.21

New cases:
Req: Quick one: pIC50 for CC1=C(c2ccccc2)C1C(=O)NC(Cc1ccccc1F)c1nc(-c2ccc(C(F)(F)F)cc2)no1 (stereo not given) ?
Resp: 5.13

Req: What does the record list as pIC50 for CC1=C(c2ccccc2)C1C(=O)NCc1nc(-c2ccc(C(F)(F)F)cc2)no1 (stereo not given) ?
Resp: 5.17

Req: Tell me the measured pIC50 of CC1=C(c2ccccc2)C1C(=O)NC(Cc1cccc(F)c1)c1nc(-c2ccc(C(F)(F)F)cc2)no1 (stereo not given) , please.
Resp: 4.85

Req: Value lookup for pIC50; key = CC1=C(c2ccccc2)C1C(=O)NCc1nc(-c2ccccc2)no1 (stereo not given)
Resp: 4.10

Every entry's value here was drawn from ChEMBL document CHEMBL5252623.
